IC50 values by entry
tested on: MiaPaca2 cells; assay: Ras cellular assay, growth of cells with K-Ras G12C mutation; format: cell-based; conditions: Homo sapiens, MIA PaCa-2; cell proliferation assay; bins ≤500 nM / >500 nM; read-out: Inhibition of MiaPaca2 Cells (IC50)

| STRUCTURE STRING | SYSTEM NAME | MEASURED RESULT |
| --- | --- | --- |
| CCN(c1nc(OC[C@@]23CCCN2C[C@H](F)C3)nc2c(F)c(-c3ccc(F)c4sc(N)c(C#N)c34)c(Cl)cc12)[C@@H]1CCN(C(=O)n2ccnc2)[C@@H]1C | MiaPaca2 cells | ≤ 500 nM |
| CCN(c1nc(OCC2(CN3CC4CCC(C3)O4)CC2)nc2c(F)c(-c3ccc(F)c4sc(N)c(C#N)c34)c(C(F)(F)F)cc12)[C@@H]1CCN(C(=O)n2cnc(Cl)n2)[C@@H]1C | MiaPaca2 cells | ≤ 500 nM |

Continue with the compound presented below.
-- ask What value of IC50 has been reported for the following compound? `C[C@@H]1[C@H](N(C)c2nc(OC[C@@]34CCCN3C[C@H](F)C4)nc3c(F)c(-c4ccc(F)c5sc(N)c(C#N)c45)c(Cl)cc23)CCN1C(=O)n1cccn1`
-- reply ≤ 500 nM

---

target: KRAS G12S (Homo sapiens, UniProt P01116, G12S); construct: made in house; host or cells: E. coli, e.g. BL21 (DE3); experiment: HTRF assay, KRAS G12S interaction with SOS1; type: biochemical; settings: bins <500 nM / 500 nM to 1000 nM, read-out: Inhibition of KRAS G12S (IC50)
Sequence (P01116 1-188 isoform P01116-2 G12S): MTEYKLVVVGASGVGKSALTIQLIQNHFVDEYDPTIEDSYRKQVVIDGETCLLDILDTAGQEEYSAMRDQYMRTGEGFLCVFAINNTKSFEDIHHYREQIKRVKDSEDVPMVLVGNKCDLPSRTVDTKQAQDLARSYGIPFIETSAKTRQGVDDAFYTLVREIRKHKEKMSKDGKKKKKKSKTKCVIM
RESULT TYPE: IC50

# annotated cases, reported IC50 shown
| COMPOUND | IC50 |
| --- | --- |
| CCN(c1nc(OC[C@@]23CCCN2C[C@H](F)C3)nc2c(F)c(-c3ccc(F)c4sc(N)c(C#N)c34)c(C3CC3)cc12)[C@@H]1CCN(C(=O)n2cc(C)nc2C)[C@@H]1C (atropisomer, axis not shown; (aS)) | < 500 nM |
| CCN(c1nc(OC[C@@]23CCCN2C[C@H](F)C3)nc2c(F)c(-c3cc(N)c(F)c(C)c3C(F)(F)F)ncc12)[C@@H]1CCN(C(=O)n2cc(C)nc2C)[C@@H]1C | < 500 nM |

-- ask Item: `Cc1cn(C(=O)N2C[C@]3(CCCCN(c4nc(OC[C@@]56CCCN5C[C@H](F)C6)nc5c(F)c(-c6ccc(F)c7sc(N)c(C#N)c67)c(Cl)cc45)C3)[C@H]2C2(C)CC2)cn1` Test system: KRAS G12S (Homo sapiens, UniProt P01116, G12S) Read-out: IC50 Value: ?
-- reply < 500 nM

---

IC50 values by entry
molecular target: KRAS G12D (Homo sapiens, UniProt P01116, G12D); construct: made in house; host or cells: E. coli, e.g. BL21 (DE3); test: HTRF assay, KRAS G12D interaction with SOS1; format: biochemical; details: bins <500 nM / 500 nM to 1000 nM, read-out: Inhibition of KRAS G12D (IC50)
Sequence (P01116 1-188 isoform P01116-2 G12D): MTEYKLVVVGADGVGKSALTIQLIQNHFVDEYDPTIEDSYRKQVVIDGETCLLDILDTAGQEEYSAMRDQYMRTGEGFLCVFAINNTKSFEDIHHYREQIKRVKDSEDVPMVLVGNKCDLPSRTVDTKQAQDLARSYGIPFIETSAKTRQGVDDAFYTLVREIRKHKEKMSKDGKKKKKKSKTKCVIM

| MOLECULE | IC50 |
| --- | --- |
| Cc1ncn(C(=O)N2CC3CCN(c4nc(OC[C@@]56CCCN5C[C@H](F)C6)nc5c(F)c(-c6ccc(F)c7sc(N)c(C#N)c67)c(Cl)cc45)C3C2)c1C (some centres unmarked) | < 500 nM |
| CCN(c1nc(OC[C@@]23CCCN2C[C@H](F)C3)nc2c(F)c(-c3cc(N)c(F)c(C)c3C(F)(F)F)ncc12)[C@@H]1CCN(C(=O)n2cc(C)nc2C)[C@@H]1C | 500 to 1000 nM |
| Cc1nccn1C(=O)N1CC2(CCN(c3nc(OC[C@@]45CCCN4C[C@H](F)C5)nc4c(F)c(-c5ccc(F)c6sc(N)c(C#N)c56)c(Cl)cc34)C2)C1 | < 500 nM |

-- ask What value of IC50 has been reported for the following molecule? `CCN(c1nc(OC[C@@]23CCCN2C[C@@]2(CC2(F)F)C3)nc2c(F)c(-c3ccc(F)c4sc(N)c(C#N)c34)c(C(F)(F)F)cc12)[C@@H]1CCN(C(=O)n2cnc(F)n2)[C@@H]1C`
-- reply < 500 nM

-- ask What value of IC50 has been reported for the following molecule? `CCN(c1nc(OC[C@@]23CCCN2C[C@H](F)C3)nc2c(F)c(-c3ccc(F)c4sc(N)c(C#N)c34)c(Cl)cc12)[C@@H]1CCN(C(=O)n2cc(C)nc2C#N)[C@@H]1C`
-- reply < 500 nM

---

target: KRAS G12D (Homo sapiens, UniProt P01116, G12D); construct: made in house; host or cells: E. coli, e.g. BL21 (DE3); test: HTRF assay, KRAS G12D interaction with SOS1; assay type: biochemical; conditions: bins <500 nM / 500 nM to 1000 nM, read-out: Inhibition of KRAS G12D (IC50)
RESULT TYPE: IC50

# annotated cases, reported IC50 shown
| STRUCTURE STRING | SYSTEM NAME | MEASURED RESULT |
| --- | --- | --- |
| CCN(c1nc(OC[C@@]23CCCN2C[C@H](F)C3)nc2c(F)c(-c3ccc(F)c4sc(N)c(C#N)c34)c(Cl)cc12)[C@@H]1CCN(C(=O)n2cnc(C#N)c2C)[C@@H]1C | KRAS G12D (Homo sapiens, UniProt P01116, G12D) | < 500 nM |
| Cc1cn(C(=O)N2CC[C@@H](N(C)c3nc(OC[C@@]45CCCN4C[C@H](F)C5)nc4c(F)c(-c5ccc(F)c6sc(N)c(C#N)c56)c(Cl)cc34)[C@H]2C)cn1 | KRAS G12D (Homo sapiens, UniProt P01116, G12D) | < 500 nM |

Continue with the compound presented below.
-- ask What value of IC50 has been reported for the following compound? `CCN(c1nc(OC[C@@]23CCCN2C[C@H](F)C3)nc2c(F)c(-c3ccc(F)c4sc(N)c(C#N)c34)c(I)cc12)[C@@H]1CCN(C(=O)n2cc(C)nc2C)[C@@H]1C`
-- reply < 500 nM

---

target: KRAS G12S (Homo sapiens, UniProt P01116, G12S); construct: made in house; host or cells: E. coli, e.g. BL21 (DE3); test: HTRF assay, KRAS G12S interaction with SOS1; assay type: biochemical; details: bins <500 nM / 500 nM to 1000 nM, read-out: Inhibition of KRAS G12S (IC50)
RESULT TYPE: IC50

# annotated cases, reported IC50 shown
| MOLECULE | IC50 |
| --- | --- |
| CCN(c1nc(OC[C@@]23CCCN2C[C@H](F)C3)nc2c(F)c(-c3ccc(F)c4sc(N)c(C#N)c34)c(C3CC3)cc12)[C@@H]1CCN(C(=O)n2ccnc2C)[C@@H]1C | < 500 nM |
| CCN(c1nc(OC[C@@]23CCCN2C[C@H](F)C3)nc2c(F)c(-c3ccc(F)c4sc(N)c(C#N)c34)c(C(F)(F)F)cc12)[C@@H]1CCN(C(=O)n2cnc(C)c2C)[C@@H]1C | < 500 nM |
| CC[C@H]1N(C(=O)n2cnc(C)c2C)C[C@]12CCCCN(c1nc(OC[C@@]34CCCN3C[C@H](F)C4)nc3c(F)c(-c4ccc(F)c5sc(N)c(C#N)c45)c(Cl)cc13)C2 | < 500 nM |
| CC1C(N(C)c2nc(OC[C@@]34CCCN3C[C@H](F)C4)nc3c(F)c(-c4ccc(F)c5sc(N)c(C#N)c45)c(Cl)cc23)CCN1C(=O)n1cnc(F)n1 (some centres unmarked) | < 500 nM |
| CN(c1nc(OC[C@@]23CCCN2C[C@H](F)C3)nc2c(F)c(-c3ccc(F)c4sc(N)c(C#N)c34)c(Cl)cc12)[C@H]1CCN(C(=O)n2ccnc2)C1 | < 500 nM |
| CC1CC(N(C)c2nc(OC[C@@]34CCCN3C[C@H](F)C4)nc3c(F)c(-c4ccc(F)c5sc(N)c(C#N)c45)c(Cl)cc23)CCN1C(=O)n1ccnc1 (some centres unmarked) | < 500 nM |

-- ask What value of IC50 has been reported for the following molecule? `C[C@@H]1[C@H](N(C)c2nc(OC[C@@]34CCCN3C[C@H](F)C4)nc3c(F)c(-c4ccc(F)c5sc(N)c(C#N)c45)c(Cl)cc23)CCN1C(=O)n1cnc(Cl)c1`
-- reply < 500 nM

-- ask What value of IC50 has been reported for the following molecule? `Cc1nccn1C(=O)N1CC2(CCCCN(c3nc(OC[C@@]45CCCN4C[C@H](F)C5)nc4c(F)c(-c5ccc(F)c6sc(N)c(C#N)c56)c(Cl)cc34)C2)C1`
-- reply < 500 nM

-- ask What value of IC50 has been reported for the following molecule? `Cc1c(C#N)ncn1C(=O)N1CC[C@@H](N(C)c2nc(OC[C@@]34CCCN3C[C@H](F)C4)nc3c(F)c(-c4ccc(F)c5sc(N)c(C#N)c45)c(Cl)cc23)[C@H]1C`
-- reply < 500 nM

-- ask What value of IC50 has been reported for the following molecule? Cc1ncn(C(=O)N2CC3CCN(c4nc(OC[C@@]56CCCN5C[C@H](F)C6)nc5c(F)c(-c6ccc(F)c7sc(N)c(C#N)c67)c(Cl)cc45)C3C2)c1C (some centres unmarked)
-- reply < 500 nM
